Data origin, for the record: patent US6509344B1

Tested on: DU-145
Assay: NCI human cancer cell line screen (COMPARE screening), Prostate DU-145
Type: cell-based
IC50: recorded values

Example compounds with recorded IC50:
{"compound": "O=C1c2ccccc2-c2c1c1ccccc1c(=O)n2CCCCCO", "assay-value": "3.4 µM"}
{"compound": "COc1cc2c3c(n(C)c(=O)c2cc1OC)-c1cc(OC)c(OC)c(OC)c1C3=O [Compound 13i]", "assay-value": "> 100 µM"}

The compound COc1cc2c(cc1OC)[C@H]1C(=O)c3cc4c(cc3[C@H]1N(C)C2=O)OCO4 (relative stereo) showed IC50 equal to 4.1 µM
